- target of assay: T1, RAMP3-CTR ECD fusion protein (hRAMP3.25–112-(GSA)3-hCTR.34–141-H6) (human, UniProt O60896 25-112; P30988 34-141)
- T1 construct: human receptor activity-modifying protein 3 (RAMP3), extracellular domain, residues 25-112; linker, printed as (GSA)3; human calcitonin receptor (CTR), extracellular domain, residues 34-141; Secreted from a pHLsec-based vector; also called AMY receptor 3 ECD; RAMP3 ECD-CTR ECD fusion protein; source: HEK293S GnTI-, transiently transfected (PEI), secreted to cell culture media, purified (IMAC, SEC)
- T1 chain: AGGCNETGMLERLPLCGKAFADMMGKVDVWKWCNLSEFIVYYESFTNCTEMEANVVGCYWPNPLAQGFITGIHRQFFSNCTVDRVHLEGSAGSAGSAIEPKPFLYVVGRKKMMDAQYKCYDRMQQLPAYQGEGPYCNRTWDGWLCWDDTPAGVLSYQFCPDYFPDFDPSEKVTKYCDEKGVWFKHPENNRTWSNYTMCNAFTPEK
- test description: fluorescence polarisation; competition binding, full curves: FITC-AC413(6–25) Y25P probe 10 nM, RAMP1-CTR ECD 77 nM, RAMP2-CTR ECD 67 nM or RAMP3-CTR ECD 252 nM, competitive peptide at multiple concentrations, all in solution; KI from non-linear regression of anisotropy
- condition parameters: both partners purified
Where no end group is shown, it is not given here. [ ]: non-standard residue; d: D form. Hyp = O=C(O)[C@@H]1C[C@@H](O)CN1
property name: pKI

Example cases with answers are listed next.
INSERT INTO measurements (binder, value) VALUES
  ('YPRTNTGSGT[Hyp]-NH2 (N-terminus assumed; SMILES C[C@@H](O)[C@H](NC(=O)[C@H](CC(N)=O)NC(=O)[C@@H](NC(=O)[C@H](CCCNC(=N)N)NC(=O)[C@@H]1CCCN1C(=O)[C@@H](N)Cc1ccc(O)cc1)[C@@H](C)O)C(=O)NCC(=O)N[C@@H](CO)C(=O)NCC(=O)N[C@H](C(=O)N1C[C@H](O)C[C@H]1C(N)=O)[C@@H](C)O, salmon calcitonin (sCT), residues 22-32, with P32HYP; numbers count on: the mature 32-residue hormone; Residue 32 is hydroxyproline, not plain proline; source: synthetic peptide (Genscript, HPLC-purified)) [sCT(22–32) P32HYP]', '6 -log10(M)'),
  ('YPRTDTGPGT[Hyp]-NH2 (salmon calcitonin (sCT), residues 22-32, with N26D, S29P and P32HYP; numbers count on: the mature 32-residue hormone; Residue 32 is hydroxyproline, not plain proline; also called the mutated sCT(22–32); sCT(22–32) with the combined mutations (N26D, S29P, and P32HYP); source: synthetic peptide (Genscript, HPLC-purified)) [sCT(22–32) N26D/S29P/P32HYP]', '6.93 -log10(M)');

Given YPRTNTGSGTP-NH2 (salmon calcitonin (sCT), residues 22-32; numbers count on: the mature 32-residue hormone; also called wild-type sCT(22–32); salmon calcitonin fragment 22–32; source: synthetic peptide (Genscript, HPLC-purified)) [sCT(22–32)] , state its recorded pKI. 5.59 -log10(M)

Given YPRTDTGPGTP-NH2 (salmon calcitonin (sCT), residues 22-32, with N26D and S29P; numbers count on: the mature 32-residue hormone; source: synthetic peptide (Genscript, HPLC-purified)) [sCT(22–32) N26D/S29P] , state its recorded pKI. 6.48 -log10(M)
